Below is a list of entries, each paired with its recorded growth value.
System: SR leukemia
Assay: NCI-60 one-dose screen, 48 h (100 = growth as untreated, 0 = no growth, -100 = all killed)
Details: 10 µM unless noted
Description: Growth inhibition of the SR human tumor cell line is measured as a screen for anti-cancer activity. Cells are grown in 96 well plates and exposed to the test compound for 48 hours. Compounds are tested at a single concentration, which is 10^-5 M for most compounds. The reported endpoint is percent growth (GI% or GIPRCNT), where numbers from 0 - 100% represent growth inhibition, and numbers from -100% - 0 represent cell death. For example, a value of 40 represents 60% growth inhibition. […]
This is part of a sample that, as a whole, favours compounds with a hit. Of some 83,000 tested, about 20% had one in any assay. Active and inactive are the calls of the source. How the source made its calls: active means growth percent below 10; inactive means the rest.

Sample answers from the record:
COMPOUND: Nc1ccc2c3c(cccc13)-c1ccccc1-2
ASSAY TARGET: SR leukemia
growth: 93.1% (inactive)

COMPOUND: CC(NC(=O)C(C)Oc1ccc(Cl)cc1Cl)C(=O)O (stereo not drawn)
ASSAY TARGET: SR leukemia
growth: 137% (inactive)

Moving on to the next compound.
Determine its reported growth: `C/C(=N/N=C(N)N)c1ccc(N)cc1`
49.3% (inactive)

====

System: OVCAR-5 ovarian
Assay: NCI-60 one-dose screen, 48 h (100 = growth as untreated, 0 = no growth, -100 = all killed)
Conditions: 10 µM unless noted
Method: Growth inhibition of the OVCAR-5 human tumor cell line is measured as a screen for anti-cancer activity. Cells are grown in 96 well plates and exposed to the test compound for 48 hours. Compounds are tested at a single concentration, which is 10^-5 M for most compounds. The reported endpoint is percent growth (GI% or GIPRCNT), where numbers from 0 - 100% represent growth inhibition, and numbers from -100% - 0 represent cell death. For example, a value of 40 represents 60% growth inhibition. […]
The panel holds about 83,000 compounds, 20% with a hit somewhere; the sample as a whole holds those more often. Calls of active or inactive are those of the source. How the source made its calls: active means growth percent below 10; inactive means the rest.
MEASUREMENT KIND: growth

MOLECULE: COc1ccc(C2CC(c3ccc(OC)c(OC)c3)=NN2C(=O)c2cc(OC)c(OC)c(OC)c2)cc1 (stereo not given)
growth: 66.5% (inactive)
//
MOLECULE: CCC(CCC(C)C1CCC2C3CC=C4CC(O)CCC4(C)C3CCC12C)C(C)C (stereo not given) (tested in a mixture with another compound)
growth: 103% (inactive)

Provide growth, tested on OVCAR-5 ovarian, for `COc1ccc(/C=N/NC(=O)c2ccc(S(C)(=O)=O)cc2)cc1OC` .
111% (inactive)

Provide growth, tested on OVCAR-5 ovarian, for `Cc1c(C)c(N2C(=O)C=CC2=O)c(C)c(C)c1N1C(=O)C=CC1=O` .
91% (inactive)

Provide growth, tested on OVCAR-5 ovarian, for `CCCOc1ccc2c(c1)CC[C@@H]1[C@@H]2CC[C@@]2(C)[C@H]1CC[C@]2(C)O` .
76.7% (inactive)

Provide growth, tested on OVCAR-5 ovarian, for O=C(C(=O)N1CCOCC1)c1ccc(OC2OC(CO)C(O)C(O)C2O)cc1 (stereo not given) .
98.2% (inactive)

Provide growth, tested on OVCAR-5 ovarian, for `COc1ccc2nc3cc(Cl)ccc3c(N3CCN(c4ccnc(Nc5ccc(F)cc5)n4)CC3)c2c1` .
95% (inactive)

Provide growth, tested on OVCAR-5 ovarian, for `CCCCc1nc(Cl)c(CO)n1Cc1ccc(-c2ccccc2-c2nn[nH]n2)cc1` .
101% (inactive)

Provide growth, tested on OVCAR-5 ovarian, for `COc1cc(/C=C/c2nnc(-c3cc(-c4ccccc4)n[nH]3)o2)cc(OC)c1OC` .
101% (inactive)

Provide growth, tested on OVCAR-5 ovarian, for COc1ccc(C2=NNC(c3cc(Cc4ccc(O)c(C5CC(c6ccc(OC)cc6)=NN5)c4)ccc3O)C2)cc1 (stereo not given) .
112% (inactive)

====

test system: MDA-MB-435 melanoma; experiment: NCI-60 one-dose screen, 48 h (100 = growth as untreated, 0 = no growth, -100 = all killed); conditions: 10 µM unless noted
About 83,000 compounds went through this panel and 20% of them were active in at least one assay; those are over-represented in the sample as a whole.
MEASUREMENT KIND: growth (%)
Entry rule: numbers only, all in %.

COMPOUND: O=C(CCc1nnc(Cn2cncn2)o1)c1nc2ccccc2[nH]1
growth / %: 103
//
COMPOUND: Cc1ccccc1NC(=O)c1cc2ccccc2cc1O
growth / %: 28.6
//
COMPOUND: CCS(=O)(=O)OCCCl
growth / %: 106
//
COMPOUND: Oc1ccccc1/C=N\Nc1ccccc1
growth / %: 28.6

Determine its reported growth: `COc1ccc(C(=O)COc2cccc(/C=C3\Oc4ccc5ccccc5c4C3=O)c2)cc1`
94.7

Determine its reported growth: `CCN(CC)CCNc1ccc(Cl)cc1Cl`
111

Determine its reported growth: `S=C1SCN(Cc2ccccc2)CN1Cc1ccco1`
37.8

Determine its reported growth: `COc1ccc(-c2csc(NC(=O)c3cc(O)c(O)c(O)c3)n2)cc1`
64.4

Determine its reported growth: `CC(C)C(=O)Cc1cnccn1`
101

Determine its reported growth: CN(CCOc1ccc(CC2SC(=O)NC2=O)cc1)c1ccccn1 (configuration not stated)
98.3

Determine its reported growth: CC(=O)O[C@H]1C(=O)[C@@]2(C)C([C@H](OC(=O)c3ccccc3)[C@]3(O)C[C@H](OC(=O)[C@H](O)[C@@H](NC(=O)c4ccccc4)c4ccccc4)C(C)=C1C3(C)C)[C@]1(OC(C)=O)CO[C@@H]1C[C@@H]2O (some centres not stated)
-11.5

Determine its reported growth: `O=C(Cn1ccnc1)NC(c1ccccc1)c1ccccc1`
99.4

Determine its reported growth: O=C1C2C3C=CC(O3)C2C(=O)N1Nc1ccccc1 (configuration not stated)
96.9

====

tested on: HCT-116 colon; assay: NCI-60 one-dose screen, 48 h (100 = growth as untreated, 0 = no growth, -100 = all killed); conditions: 10 µM unless noted
Compounds without any hit were thinned out: in the full panel of roughly 83,000, 20% have a hit. Active and inactive are the calls of the source. Rule for the calls: active = growth percent below 10; inactive = the rest.
MEASUREMENT KIND: growth

Sample answers from the record:
COMPOUND: CN(C)c1ccc(/C=C\c2ccnc3ccccc23)cc1
growth: 62.6% (inactive)

COMPOUND: CC/C=C\C=C/C(=O)N/C=C/CC1Cc2cccc(O)c2C(=O)O1 (stereo not drawn)
growth: 33.8% (inactive)

COMPOUND: CN1C(=O)C(=Cc2cn(Cc3ccccc3)c3ccc(Br)cc23)C(=O)N(C)C1=O
growth: 101% (inactive)

COMPOUND: COc1ccc2nc3cc(Cl)ccc3c(N3CCN(c4ccnc(Nc5ccc(F)cc5)n4)CC3)c2c1
growth: 41.4% (inactive)

COMPOUND: CC1(C)OC(=O)C(=Cc2ccccc2Br)C(=O)O1
growth: 79.3% (inactive)

Provide growth, tested on HCT-116 colon, for `O=C(Nc1cccc2ccccc12)c1cc2c(cc1Br)OCO2` .
236% (inactive)

Provide growth, tested on HCT-116 colon, for `O=C1Cc2cc(CCN3CCN(CCOCCO)CC3)c(Cl)cc2N1Cc1ccc(-c2ccccc2-c2nn[nH]n2)cc1` .
87.8% (inactive)

Provide growth, tested on HCT-116 colon, for `CC(C)[O-].CC(C)[O-].CN(CCN(C)Cc1cc(F)cc(F)c1[O-])Cc1cc(F)cc(F)c1[O-].[Ti+4]` .
-0.794% (active)

====

tested on: UACC-62 melanoma; experiment: NCI-60 one-dose screen, 48 h (100 = growth as untreated, 0 = no growth, -100 = all killed); conditions: 10 µM unless noted
Compounds without any hit were thinned out: in the full panel of roughly 83,000, 20% have a hit.
Under this convention, t denotes growth strictly below 70% and f denotes growth at or above 70%.

Worked cases, answers included:
MOLECULE: Nc1c2ccccc2nc2ccccc12 (tested in a mixture with another compound)
GROUP: t
--
MOLECULE: COc1cc(C2CC(c3ccc(C)cc3)=NN2C(C)=O)ccc1Oc1ccnc2cc(Cl)ccc12 (centres undefined)
GROUP: f

For `O=C(COC(=O)[C@H](C[Se][Se]C[C@H](NC(=O)c1ccc(Br)cc1F)C(=O)OCC(=O)c1ccc(F)cc1)NC(=O)c1ccc(Br)cc1F)c1ccc(F)cc1` , is the recorded growth below the cut-off of 70%?
t

For `c1cncc(CNc2ccccc2-c2nnc(Nc3ccc4c(c3)OCO4)o2)c1` , is the recorded growth below the cut-off of 70%?
t

For `Cc1ccc(NC(=O)CSc2nnc3n(Cc4ccccc4)c(=O)c4c(C)c(C(N)=O)sc4n23)cc1` , is the recorded growth below the cut-off of 70%?
t

For `Nc1nc(SCC2(CCl)COC2)c2[nH]cnc2n1` , is the recorded growth below the cut-off of 70%?
f

For `CCCOc1ccc2c(c1)CC[C@@H]1[C@@H]2CC[C@@]2(C)[C@H]1CC[C@]2(C)O` , is the recorded growth below the cut-off of 70%?
f

For `Clc1cc(Cl)c(OCC#CI)cc1Cl` , is the recorded growth below the cut-off of 70%?
t

For `Nc1nc(N)c([N+](=O)[O-])c(=O)[nH]1` , is the recorded growth below the cut-off of 70%?
f

For `O=C(Nc1ccc(Nc2ccncc2)cc1)c1ccc(Nc2ccnc3ccc([N+](=O)[O-])cc23)cc1[N+](=O)[O-]` , is the recorded growth below the cut-off of 70%?
f

For `Cc1nn(-c2ccccc2)c(Cl)c1C(CC(=O)c1ccc(Cl)cc1)CC(=O)c1ccc(Cl)cc1` , is the recorded growth below the cut-off of 70%?
f

For `C=C(C)[C@@H]1C[C@H](O)Cc2cc(Cl)cc(Cl)c2N1` , is the recorded growth below the cut-off of 70%?
f

For `Cn1[nH]cc(/C=N/C(N)=O)c1=O` , is the recorded growth below the cut-off of 70%?
f

For `COc1ccc2c(c1)/C(=C\c1c[nH]c3ccc(F)cc13)C(=O)N2` , is the recorded growth below the cut-off of 70%?
f

For Nc1nc2ncc(CCNc3ccc(C(=O)NC(CCC(=O)O)C(=O)O)cc3)nc2c(=O)[nH]1 (centres undefined) , is the recorded growth below the cut-off of 70%?
f

For `Cc1cc(NC(=O)c2ccc(N)cc2)ccc1N=Nc1ccc2c(O)c(N=Nc3ccc(Cl)c(S(=O)(=O)O)c3)c(S(=O)(=O)O)cc2c1` , is the recorded growth below the cut-off of 70%?
f

For `CCCCCCOc1ccc(/C=N/NC(N)=S)cc1` , is the recorded growth below the cut-off of 70%?
t

For CCOC(=O)C(C(C)=O)c1nc2sc3cc(Cl)ccc3n2c(=N)c1C#N (centres undefined) , is the recorded growth below the cut-off of 70%?
t

For `CCCCCCCC/C=C/CCCCCCCC1=NC(C)(C)CN1CCO` , is the recorded growth below the cut-off of 70%?
t

For CC(c1ccccn1)C(C)(O)C(C)c1ccccn1 (centres undefined) , is the recorded growth below the cut-off of 70%?
f

For `NC(=Nc1ccccc1)SCCCCSC(N)=Nc1ccccc1` , is the recorded growth below the cut-off of 70%?
t

These measurements were taken from PubChem BioAssay (NCI).
